- TARGET OF ASSAY: Glutamate receptor ionotropic, NMDA 1 (Rattus norvegicus)
- RUN DESCRIPTION: In vitro binding assay for the displacement of [3H]MDL-105519 from the glycine-site of NMDA receptors
pIC50: −log10 of the molar value.
Classify by measured pIC50: T if it is equal to or exceeds 7, F if it is smaller.

Reference set (3 entries):
[
  {
    "MOLECULE": "O=C(Cc1ccc2c(c1)OCO2)NCc1cc(Br)cc2[nH]c(=O)c(=O)[nH]c12",
    "LABEL": "F"
  },
  {
    "MOLECULE": "COc1cccc(CC(=O)NCc2cc(Br)cc3[nH]c(=O)c(=O)[nH]c23)c1",
    "LABEL": "T"
  },
  {
    "MOLECULE": "O=C(NCc1cc(Br)cc2[nH]c(=O)c(=O)[nH]c12)C(=O)c1ccccc1",
    "LABEL": "F"
  }
]

I'd appreciate it if you could say whether COc1ccc(NC(=O)NCc2cc([N+](=O)[O-])cc3[nH]c(=O)c(=O)[nH]c23)cc1 has pIC50 at least equal to 7.
T

Entry NS(=O)(=O)c1ccc(C(=O)NCc2cc([N+](=O)[O-])cc3[nH]c(=O)c(=O)[nH]c23)cc1 : is its pIC50 no less than 7?
F

Record O=C(NCc1cc(Br)cc2nc(O)c(O)nc12)c1cccs1 ; criterion: pIC50 no lower than 7. Met?
T

* * *

Measured pIC50, listed per entry for reference.
- TARGET OF ASSAY: Glutamate receptor ionotropic, NMDA 1 (Rattus norvegicus, UniProt P35439)
- RUN DESCRIPTION: In vitro binding assay for the displacement of [3H]MDL-105519 from the glycine-site of NMDA receptors
Conceptually, pIC50 converts a concentration in mol/L into minus its log10.

Please review the following examples before continuing.
[
  {
    "MOLECULE": "CC(C(=O)NCc1cc(Br)cc2nc(O)c(O)nc12)c1ccccc1 (stereo not given)",
    "VALUE REPORTED": 8.00
  },
  {
    "MOLECULE": "O=C(Cc1ccccc1Cl)NCc1cc(Br)cc2[nH]c(=O)c(=O)[nH]c12",
    "VALUE REPORTED": 8.15
  },
  {
    "MOLECULE": "O=C(NCc1cc(Br)cc2nc(O)c(O)nc12)c1ccccc1",
    "VALUE REPORTED": 7.22
  }
]

Fill in the recorded pIC50 for this molecule, with Glutamate receptor ionotropic, NMDA 1 (Rattus norvegicus, UniProt P35439) as test system: COc1ccc(CC(=O)NCc2cc(Br)cc3[nH]c(=O)c(=O)[nH]c23)cc1OC
7.30

Requested read-out pIC50, target or system Glutamate receptor ionotropic, NMDA 1 (Rattus norvegicus, UniProt P35439), entry O=C(Cc1ccsc1)NCc1cc(Br)cc2nc(O)c(O)nc12
8.00

* * *

- TARGET OF ASSAY: Glutamate receptor ionotropic, NMDA 1 (Rattus norvegicus)
- RUN DESCRIPTION: In vitro binding assay for the displacement of [3H]MDL-105519 from the glycine-site of NMDA receptors
QUANTITY MEASURED: IC50 (nM)
Give a bare numeral; the unit nM is implied.

Completed entries (count: 5):
[
  {
    "COMPOUND": "O=C(Cc1cccc([N+](=O)[O-])c1)NCc1cc(Br)cc2[nH]c(=O)c(=O)[nH]c12",
    "IC50 / nM": 40
  },
  {
    "COMPOUND": "Cc1ccc(C(=O)NCc2cc(Br)cc3nc(O)c(O)nc23)cn1",
    "IC50 / nM": 110
  },
  {
    "COMPOUND": "Cn1cccc1C(=O)NCc1cc(Br)cc2[nH]c(=O)c(=O)[nH]c12",
    "IC50 / nM": 20
  },
  {
    "COMPOUND": "O=C(Cc1ccc(Cl)cc1)NCc1cc(Br)cc2nc(O)c(O)nc12",
    "IC50 / nM": 20000
  },
  {
    "COMPOUND": "COc1ccccc1NC(=O)NCc1cc([N+](=O)[O-])cc2nc(O)c(O)nc12",
    "IC50 / nM": 30
  }
]

Form field: IC50 recorded for O=C(NCc1cc(Br)cc2[nH]c(=O)c(=O)[nH]c12)c1ccco1 with Glutamate receptor ionotropic, NMDA 1 (Rattus norvegicus) (enter value)
40

* * *

- TARGET OF ASSAY: Glutamate receptor ionotropic, AMPA (Rattus norvegicus, UniProt P19490+P19491+P19492+P19493)
- RUN DESCRIPTION: In vitro binding assay for the displacement of [3H]AMPA from AMPA receptor
Measured pIC50 by item
The quantity pIC50 is defined as the negative base-10 logarithm of the molar concentration.

Known results for compounds:
[
  {
    "STRUCTURE": "COc1ccc(NC(=O)NCc2cc([N+](=O)[O-])cc3[nH]c(=O)c(=O)[nH]c23)cc1",
    "QUANTITY MEASURED": "pIC50",
    "VALUE REPORTED": 6.52
  },
  {
    "STRUCTURE": "O=C(Cc1ccccc1)NCc1cc([N+](=O)[O-])cc2[nH]c(=O)c(=O)[nH]c12",
    "QUANTITY MEASURED": "pIC50",
    "VALUE REPORTED": 4.54
  },
  {
    "STRUCTURE": "O=C(NCc1cc([N+](=O)[O-])cc2[nH]c(=O)c(=O)[nH]c12)c1ccccc1O",
    "QUANTITY MEASURED": "pIC50",
    "VALUE REPORTED": 6.82
  },
  {
    "STRUCTURE": "O=C(NCc1cc(Br)cc2nc(O)c(O)nc12)c1cccs1",
    "QUANTITY MEASURED": "pIC50",
    "VALUE REPORTED": 5.80
  }
]

Consider now this further compound.
What pIC50 value was documented for this compound, COc1cc(C(=O)NCc2cc([N+](=O)[O-])cc3[nH]c(=O)c(=O)[nH]c23)cc(OC)c1OC ?
7.19

* * *

- TARGET OF ASSAY: Glutamate receptor ionotropic, AMPA (Rattus norvegicus, UniProt P19490+P19491+P19492+P19493)
- RUN DESCRIPTION: In vitro binding assay for the displacement of [3H]AMPA from AMPA receptor
The following compounds are listed with their measured IC50 values.
Dear colleague, please return just the value in µM, with no unit written.

The cases that follow already have their IC50 on record.
[
  {
    "STRUCTURE": "O=C(NCc1cc([N+](=O)[O-])cc2nc(O)c(O)nc12)Nc1ccccc1",
    "QUANTITY MEASURED": "IC50",
    "OUTPUT UNIT": "µM",
    "VALUE REPORTED": 4.34
  },
  {
    "STRUCTURE": "O=C(NCc1cc(Br)cc2[nH]c(=O)c(=O)[nH]c12)c1ccco1",
    "QUANTITY MEASURED": "IC50",
    "OUTPUT UNIT": "µM",
    "VALUE REPORTED": 6.8
  },
  {
    "STRUCTURE": "Nc1ccccc1C(=O)NCc1cc([N+](=O)[O-])cc2[nH]c(=O)c(=O)[nH]c12",
    "QUANTITY MEASURED": "IC50",
    "OUTPUT UNIT": "µM",
    "VALUE REPORTED": 0.3
  }
]

Now for the compound whose IC50 we want.
Find the recorded IC50 belonging to COc1ccccc1NC(=O)NCc1cc([N+](=O)[O-])cc2nc(O)c(O)nc12 and report it.
0.63

* * *

- TARGET OF ASSAY: Glutamate receptor ionotropic, AMPA (Rattus norvegicus, UniProt P19490+P19491+P19492+P19493)
- RUN DESCRIPTION: In vitro binding assay for the displacement of [3H]AMPA from AMPA receptor
pIC50: −log10 of the molar value.
Reported values of pIC50 for individual entries

[
  {
    "COMPOUND": "O=C(NCc1cc([N+](=O)[O-])cc2[nH]c(=O)c(=O)[nH]c12)c1cc(O)c(O)c(O)c1",
    "QUANTITY MEASURED": "pIC50",
    "VALUE REPORTED": 6.89
  },
  {
    "COMPOUND": "O=C(NCc1cc(Br)cc2nc(O)c(O)nc12)c1cccnc1",
    "QUANTITY MEASURED": "pIC50",
    "VALUE REPORTED": 5.37
  },
  {
    "COMPOUND": "O=C(NCc1cc(Br)cc2[nH]c(=O)c(=O)[nH]c12)Oc1ccccc1",
    "QUANTITY MEASURED": "pIC50",
    "VALUE REPORTED": "< 5.00"
  },
  {
    "COMPOUND": "O=C(Cc1cccc(Cl)c1)NCc1cc(Br)cc2nc(O)c(O)nc12",
    "QUANTITY MEASURED": "pIC50",
    "VALUE REPORTED": "< 5.00"
  },
  {
    "COMPOUND": "COc1cccc(CC(=O)NCc2cc(Br)cc3[nH]c(=O)c(=O)[nH]c23)c1",
    "QUANTITY MEASURED": "pIC50",
    "VALUE REPORTED": "< 5.00"
  }
]

Look up pIC50: O=C(NCc1cc(Br)cc2[nH]c(=O)c(=O)[nH]c12)c1ccsc1
5.70

I would be grateful if you could share the reported pIC50 for Cc1ccc(C(=O)NCc2cc(Br)cc3[nH]c(=O)c(=O)[nH]c23)s1 .
5.77

// lookup pIC50 for O=C(NCc1cc(Br)cc2nc(O)c(O)nc12)c1ccncc1
~5.00

Dear colleague, I am looking for the recorded pIC50 of the following compound: O=C(Cc1ccc([N+](=O)[O-])cc1)NCc1cc(Br)cc2nc(O)c(O)nc12
< 5.00

// pIC50 lookup, key: O=C(NCc1cc(Br)cc2nc(O)c(O)nc12)c1ccccc1
5.77

May I ask what pIC50 has been recorded for O=C(NCc1cc([N+](=O)[O-])cc2nc(O)c(O)nc12)Nc1ccc(OC(F)(F)F)cc1 ?
5.96

Using the record for O=C(CCc1ccccc1)NCc1cc(Br)cc2nc(O)c(O)nc12 , report its pIC50.
< 5.00

Which value of pIC50 has been reported for CC(=O)OC(C(=O)NCc1cc(Br)cc2nc(O)c(O)nc12)c1ccccc1 (stereo not drawn) in the records?
< 5.00

Name the recorded pIC50 for Cn1cccc1C(=O)NCc1cc(Br)cc2[nH]c(=O)c(=O)[nH]c12 .
< 5.00

Bench note: what pIC50 did O=C(Cc1ccc(Cl)cc1)NCc1cc(Br)cc2nc(O)c(O)nc12 show?
< 5.00

# lookup: pIC50 of NS(=O)(=O)c1ccc(C(=O)NCc2cc([N+](=O)[O-])cc3[nH]c(=O)c(=O)[nH]c23)cc1
6.70

Reported pIC50 for O=C(Cc1ccccc1Cl)NCc1cc(Br)cc2[nH]c(=O)c(=O)[nH]c12 : what is it?
< 5.00

Entry under review: O=C(Cc1ccsc1)NCc1cc(Br)cc2nc(O)c(O)nc12 . Reported pIC50?
4.95

Using the record for O=C(NCc1cc(Br)cc2[nH]c(=O)c(=O)[nH]c12)C(=O)c1ccccc1 , report its pIC50.
< 5.00

Sample O=C(Cc1ccccc1)NCc1cc(Cl)cc2nc(O)c(O)nc12 — what was its pIC50?
~5.00

Query (compound): O=C(NCc1cc(Br)cc2[nH]c(=O)c(=O)[nH]c12)C(O)c1ccccc1 (stereo not drawn) ; field requested: pIC50
~5.00

Could you share which pIC50 value was measured for O=C(Cc1ccccc1)NCc1cc(Br)cc2[nH]c(=O)c(=O)[nH]c12 ?
< 5.00

Consider the compound O=C(Cc1ccccc1[N+](=O)[O-])NCc1cc(Br)cc2nc(O)c(O)nc12 and give its measured pIC50.
< 5.00
